FYI, the data here is from patent US9920010B2.

Assayed system: CXCR7 (Homo sapiens)
Experiment: PathHunter CHO-K1 CXCR7 b-arrestin recruitment assay (CXCR7 agonistic activity)
Assay setup: PathHunter CHO-K1 CXCR7 b-arrestin cell line
pEC50: −log10 of the molar value.
Quick rule: pEC50 of at least 8 means Met, below that means Not met.

Previously resolved entries follow.
[
  {
    "Molecule": "CN(C)CCN(CCc1ccccc1)C(=O)CNc1cccc2c1CCN(CC1CC1)C2",
    "Group": "Not met"
  },
  {
    "Molecule": "O=C(CNc1cccc2c1CCN(CC1CC1)C2)N(CCN1CCCC1)Cc1ccccc1F",
    "Group": "Met"
  },
  {
    "Molecule": "CN(C)CCN(Cc1ccccc1)C(=O)/C=C/c1cccc2c1CCN(C(=O)OC(C)(C)C)C2",
    "Group": "Not met"
  }
]

Check this molecule for pEC50 at or above 8: CC(C)(C)OC(=O)N1CCC(N(Cc2ccccc2)C(=O)CNc2cccc3c2CCN(CC2CC2)C3)C1 (racemic) Not met

Check this molecule for pEC50 at or above 8: `CCN(CC)CCN(Cc1ccccc1C(F)(F)F)C(=O)CNc1cccc2c1CCN(CC1CC1)C2` Met

Check this molecule for pEC50 at or above 8: `CC(C)CN1Cc2cccc(NCC(=O)N(CCN(C)C)Cc3ncccc3C(F)(F)F)c2CC1=O` Not met

Check this molecule for pEC50 at or above 8: `CN(C)CCN(Cc1ccccc1C(F)(F)F)C(=O)CNc1cccc2c1CCN(c1ccccn1)C2` Met

Check this molecule for pEC50 at or above 8: CN(C)CCN(Cc1ncccc1Cl)C(=O)CNc1cccc2c1CCN(C(=O)[C@@H]1C[C@@H]1F)C2 (racemic) Not met

====

Recorded EC50, one value per entry.
Assayed system: CXCR7 (Homo sapiens, UniProt P25106)
Sequence (P25106 whole entry): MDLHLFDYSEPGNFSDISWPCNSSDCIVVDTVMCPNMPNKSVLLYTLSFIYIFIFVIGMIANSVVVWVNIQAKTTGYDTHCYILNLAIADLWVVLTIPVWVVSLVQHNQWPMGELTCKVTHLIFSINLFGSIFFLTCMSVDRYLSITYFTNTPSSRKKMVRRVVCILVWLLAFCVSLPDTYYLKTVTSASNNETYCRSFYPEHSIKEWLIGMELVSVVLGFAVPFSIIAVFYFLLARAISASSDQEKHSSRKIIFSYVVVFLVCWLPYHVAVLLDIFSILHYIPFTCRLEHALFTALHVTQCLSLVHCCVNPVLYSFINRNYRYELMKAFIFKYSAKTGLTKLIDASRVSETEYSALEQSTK
Sequence (P32121 whole entry partner): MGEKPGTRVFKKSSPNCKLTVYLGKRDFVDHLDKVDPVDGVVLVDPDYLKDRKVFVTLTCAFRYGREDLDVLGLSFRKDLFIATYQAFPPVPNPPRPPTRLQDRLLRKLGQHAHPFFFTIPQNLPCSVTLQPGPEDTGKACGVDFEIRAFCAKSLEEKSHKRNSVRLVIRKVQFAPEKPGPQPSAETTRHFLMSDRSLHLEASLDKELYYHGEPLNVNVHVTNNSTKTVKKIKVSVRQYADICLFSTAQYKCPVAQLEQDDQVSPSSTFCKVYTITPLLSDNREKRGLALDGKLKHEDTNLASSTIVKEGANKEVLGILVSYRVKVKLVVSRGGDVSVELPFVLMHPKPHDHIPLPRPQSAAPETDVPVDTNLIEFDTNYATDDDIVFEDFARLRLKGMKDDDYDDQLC
Experiment: PathHunter CHO-K1 CXCR7 b-arrestin recruitment assay (CXCR7 agonistic activity)
Assay setup: PathHunter CHO-K1 CXCR7 b-arrestin cell line
Procedure: The CXCl12 receptor and CXCR7 agonistic activities of the compounds of formula (I) are determined in accordance with the following experimental method. The assay is using the PathHunter™ CHO-K1 CXCR7 b-arrestin cell line from DiscoverX. The system is based on the Enzyme Fragment Complementation Technology. Two complementing fragments of the b-galactosidase enzyme are expressed within stably transfected cells. […]
# output: bare number, implied unit nM

Example cases with answers are listed next.
[
  {
    "Compound": "CN(CCN(Cc1ccccc1C(F)(F)F)C(=O)CNc1cccc2c1CCN(CC1CC1)C2)C1CC1",
    "EC50 / nM": 3
  },
  {
    "Compound": "CCC(=O)N1CCc2c(cccc2NCC(=O)N(CCN2CCCC2)Cc2ccccc2)C1",
    "EC50 / nM": 28
  },
  {
    "Compound": "CN1CCC(N(Cc2ccccc2C(F)(F)F)C(=O)CCc2cccc3c2CCN(CC2CC2)C3)CC1",
    "EC50 / nM": 15
  }
]

For the compound shown here, `O=C(CNc1cccc2c1CN(CC1CC1)CC2)N(CC(=O)N1CC(F)(F)C1)Cc1ccccc1C(F)(F)F` , give the reported EC50. 32

For the compound shown here, `CN(C)CCN(Cc1ncccn1)C(=O)CNc1cccc2c1CCN(CC1CC1)C2` , give the reported EC50. 125

For the compound shown here, `C=CCN(C)CCN(Cc1ccccc1C(F)(F)F)C(=O)CNc1cccc2c1CN(CC=C)CC2` , give the reported EC50. 16

For the compound shown here, `COc1ccc(CCN(CCN(C)C)C(=O)CNc2cccc3c2CCN(CC2CC2)C3)cc1OC` , give the reported EC50. 147

For the compound shown here, `CNCCN(Cc1ncccc1C(F)(F)F)C(=O)CNc1cccc2c1CCN(C(=O)C1CC1)C2` , give the reported EC50. 5

For the compound shown here, `CN(CCN(Cc1ncccc1C(F)(F)F)C(=O)CNc1cccc2c1CCN(CC1CC1)C2)C(=O)OC(C)(C)C` , give the reported EC50. 108

For the compound shown here, `CCC(=O)N1CCc2c(cccc2NCC(=O)N(CCN(C)C)Cc2ccc(C(F)(F)F)cc2)C1` , give the reported EC50. 132

For the compound shown here, `CCN(Cc1ccccc1Cl)C(=O)/C=C/c1cccc2c1CCN(C(=O)OC(C)(C)C)C2` , give the reported EC50. 413

For the compound shown here, `CCN1CCc2cccc(NCC(=O)N(CCN(C)C)Cc3ccc(OC)cc3)c2C1` , give the reported EC50. 245

For the compound shown here, `N#CCCN(Cc1ccccc1C(F)(F)F)C(=O)CNc1cccc2c1CCN(CC1CC1)C2` , give the reported EC50. 28

For the compound shown here, `O=C(CNc1cccc2c1CN(CC1CC1)CC2)N(CCN1CCC(F)(F)C1)Cc1ncccc1C(F)(F)F` , give the reported EC50. 41

For the compound shown here, COCC(C)N1CCc2c(cccc2NCC(=O)N(CCN(C)C)Cc2ccccc2C(F)(F)F)C1 (racemic) , give the reported EC50. 11

For the compound shown here, `O=C(CNc1cccc2c1CCN(CC1CC1)C2)N(CCN1CCCC(F)(F)C1)Cc1ccccc1C(F)(F)F` , give the reported EC50. 43
